Target: 11-beta-hydroxysteroid dehydrogenase type 2 (Homo sapiens)
Sequence (P80365 whole entry): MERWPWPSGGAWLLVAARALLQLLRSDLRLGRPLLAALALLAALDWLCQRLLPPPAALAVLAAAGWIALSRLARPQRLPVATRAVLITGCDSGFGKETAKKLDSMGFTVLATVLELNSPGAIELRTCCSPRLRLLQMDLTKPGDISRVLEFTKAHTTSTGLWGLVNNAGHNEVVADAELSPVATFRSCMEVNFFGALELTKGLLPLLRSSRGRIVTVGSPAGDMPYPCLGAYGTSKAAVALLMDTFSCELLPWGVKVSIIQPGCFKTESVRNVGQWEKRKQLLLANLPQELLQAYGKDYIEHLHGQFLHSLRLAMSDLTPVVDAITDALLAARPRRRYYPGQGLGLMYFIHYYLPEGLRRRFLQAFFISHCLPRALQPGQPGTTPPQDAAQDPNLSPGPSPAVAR
Would you kindly list IC50 for each of these compounds?
Express the result in µM but write the number alone.

Query: Need IC50 of CC1(C)C(=O)N([C@H]2C3CC4CC2C[C@](C(N)=O)(C4)C3)CC1COc1ccc(-n2ccnc2)cc1 (stereo not given in full) , thanks.
Result: 1.8

Query: Need IC50 of CC1(C)C(=O)N([C@H]2C3CC4CC2C[C@](C(N)=O)(C4)C3)CC1COc1ccc(-n2cncn2)cc1 (stereo not given in full) , thanks.
Result: 1.6

Query: Need IC50 of CC1(C)C(=O)N([C@H]2C3CCCC2C[C@@H](C(N)=O)C3)CC1COc1ccc(C#N)cn1 (stereo in doubt; 31) , thanks.
Result: 15

* * *

Target: 11-beta-hydroxysteroid dehydrogenase type 2 (Mus musculus)
Sequence (P51661 whole entry): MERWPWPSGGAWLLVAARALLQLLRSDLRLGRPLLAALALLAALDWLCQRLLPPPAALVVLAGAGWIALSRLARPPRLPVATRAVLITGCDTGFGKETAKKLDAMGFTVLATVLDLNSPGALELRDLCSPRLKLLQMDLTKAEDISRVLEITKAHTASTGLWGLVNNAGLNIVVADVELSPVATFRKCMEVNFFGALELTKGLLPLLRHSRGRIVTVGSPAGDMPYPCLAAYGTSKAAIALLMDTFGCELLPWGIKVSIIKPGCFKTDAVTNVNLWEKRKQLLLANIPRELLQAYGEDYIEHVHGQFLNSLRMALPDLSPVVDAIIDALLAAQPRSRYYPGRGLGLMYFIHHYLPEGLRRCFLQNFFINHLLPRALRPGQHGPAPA
Would you kindly list pIC50 for each of these compounds?
# reply with the number alone; pIC50 is -log10 of concentration in mol/L

Query: Need pIC50 of CC1(C)C(=O)N([C@H]2C3CC4CC2C[C@](C(N)=O)(C4)C3)CC1COc1ccc(-n2ccnc2)cc1 (stereo partly drawn) , thanks.
Result: 4.85

Query: Need pIC50 of CC1(C)C(=O)N([C@H]2C3CC4CC2C[C@](C(N)=O)(C4)C3)CC1COc1ccc(-n2cncn2)cc1 (stereo partly drawn) , thanks.
Result: 5.10

* * *

Molecular target: 11-beta-hydroxysteroid dehydrogenase 1 (Homo sapiens, UniProt P28845)
Sequence (P28845 whole entry): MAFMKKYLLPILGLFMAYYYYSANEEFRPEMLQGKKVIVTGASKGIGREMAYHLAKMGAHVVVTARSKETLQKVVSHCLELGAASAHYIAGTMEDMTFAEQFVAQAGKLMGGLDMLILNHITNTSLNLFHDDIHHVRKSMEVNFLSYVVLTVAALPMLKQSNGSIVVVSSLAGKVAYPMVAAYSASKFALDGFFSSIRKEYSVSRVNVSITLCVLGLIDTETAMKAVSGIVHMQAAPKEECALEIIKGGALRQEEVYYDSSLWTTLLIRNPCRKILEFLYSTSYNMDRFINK
Assay: Inhibition of human 11beta-HSD1 expressed in HEK293 cells
Format: cell-based
Doc: threshold 40 nM (exclusive). Items with IC50 beneath it return 1 (yes); others return 0 (no).

Query: Determine if CC1(C)C(=O)N([C@H]2C3CCCC2C[C@@H](C(N)=O)C3)CC1COc1ccc(C#N)cn1 (stereo in doubt; 32) shows IC50 strictly lower than 40 nM.
Result: 0 (no)

Query: Determine if CC1(C)C(=O)N([C@H]2C3CC4CC2C[C@](C(N)=O)(C4)C3)CC1COc1ccc(-n2ccnc2)cc1 (stereo partly specified) shows IC50 strictly lower than 40 nM.
Result: 1 (yes)

Query: Determine if CCOC(=O)[C@H]1[C@@H]2CCC(N3CC(COc4ccc(C#N)cn4)C(C)(C)C3=O)CC[C@@H]21 (stereo partly specified) shows IC50 strictly lower than 40 nM.
Result: 0 (no)

Query: Determine if CC1(C)C(=O)N([C@H]2C3CCCC2C[C@H](C(N)=O)C3)CC1COc1ccc(C#N)cn1 (stereo partly specified) shows IC50 strictly lower than 40 nM.
Result: 0 (no)

Query: Determine if CC1(C)C(=O)N([C@H]2C3CC4CC2C[C@](c2nnn[nH]2)(C4)C3)CC1COc1ccc(C(F)(F)F)cn1 (stereo partly specified) shows IC50 strictly lower than 40 nM.
Result: 0 (no)

Query: Determine if CC1(C)C(=O)N([C@H]2C3CC4CC2C[C@](C(N)=O)(C4)C3)CC1COc1ccc(-n2cncn2)cc1 (stereo partly specified) shows IC50 strictly lower than 40 nM.
Result: 0 (no)
